Data provenance is paper PMC10397247.

targetEntity: T1, 4H2151-AA
T1 chain: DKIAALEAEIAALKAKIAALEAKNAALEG
assayText: two-hybrid library CCmax;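 note: natural log of median RNA to DNA barcode read ratio; higher means stronger binding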
runConditions: mean of both orientations
readout: interaction score
Form: value (number only, do not type unit).

So what does the record say about interaction score for DEIAALEAEIAALKAKNAALKAEIAALKG [4H122-AA] ?
-1.58

So what does the record say about interaction score for DENAALKAKIAALKAEIAALKAENAALEG [4H1867-AA] ?
-1.27

So what does the record say about interaction score for DENAALEAEIAALKAKIAALKAKNAALEG [4H1135-AA] ?
-0.817
